Target: T1, Rnd2 GTPase (residues 1-227), loaded with GMPPNP (UniProt P52198 1-227)
T1 sequence (looked up): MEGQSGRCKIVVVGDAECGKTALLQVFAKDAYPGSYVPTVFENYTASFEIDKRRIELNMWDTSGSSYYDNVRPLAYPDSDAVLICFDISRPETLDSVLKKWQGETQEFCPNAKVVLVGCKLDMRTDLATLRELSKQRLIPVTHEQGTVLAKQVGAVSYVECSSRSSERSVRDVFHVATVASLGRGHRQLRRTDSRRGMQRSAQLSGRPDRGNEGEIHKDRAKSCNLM
Assay: ITC
measurement_kind: dH (kcal/mol)

Consider the following illustrative entries.
binder: plexin-A2 Rho GTPase binding domain (RBD), residues 1490-1600 (domain or fragment, human, UniProt O75051 1490-1600, looked up) LIRQQIEYKTLILNCVNPDNENSPEIPVKVLNCDTITQVKEKILDAVYKNVPYSQRPRAVDMDLEWRQGRIARVVLQDEDITTKIEGDWKRLNTLMHYQVSDRSVVALVPK
dH, kcal/mol: -1.2

binder: plexin-B1 Rho GTPase binding domain (RBD), residues 1746-1852 (domain or fragment, human, UniProt O43157 1746-1852, looked up) YRPLTLNALLAVGPGAGEAQGVPVKVLDCDTISQAKEKMLDQLYKGVPLTQRPDPRTLDVEWRSGVAGHLILSDEDVTSEVQGLWRRLNTLQHYKVPDGATVALVPC
dH, kcal/mol: -0.2

I = plexin-C1 RBD K1267L (domain or fragment) TVALNVVFEKIPENESADVCRNISVNVLDCDTIGQAKEKIFQAFLSKNGSPYGLQLNEIGLELQMGTRQLELLDIDSSSVILEDGITKLNTIGHYEISNGSTIKVFKK
II = plexin-D1 RBD Y1618L (domain or fragment) AKPRNLNVSFQGCGMDSLSVRAMDTDTLTQVKEKILEAFCKNVPYSQWPRAEDVDLEWFASSTQSLILRDLDDTSVVEDGRKKLNTLAHYKIPEGASLAMSLIDKKDNTLGRVKDLDTEKYFHLVL
In: Form: Entry with minimum dH (choose one): I / II Respond using the label that marks the chosen record.
Out: II

Origin of the recorded values: paper PMC3138255
